# system tested: Ac-VQIINK-NH2 (SEQ ID NO: 23) (N-terminal acetyl (Ac); C-terminal amide (NH2))
# method summary: cell-based or functional assay
Square brackets hold non-standard residues; d marks the D form. Ends that are not written are not given here.
Item-by-item account of VQIINK Inhibition IC50
Kindly provide the numeric value in µm only, without the unit symbol.

Some binders with recorded VQIINK Inhibition IC50:
[dV][dR][dW][dW][dK][dL][dR][dW] [vrwwklrw]	4.06
[dL][dK][dI][dR][dI][dH][dR][dH] [lkirihrh]	7.35
[dL][dK][dL][dH][dL][dH][dF][dH] [lklhlhfh]	2.87

Kindly review the next binder as well.
Looking up [dL][dR][dI][dR][dI][dR][dF][dH] [lririrfh] , I see its VQIINK Inhibition IC50 listed as 1.84
